Data provenance: ChEMBL document CHEMBL1961873

# Tested Target: Tyrosine-protein kinase JAK3 (Homo sapiens);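 also: values reported are mean percent inhibition of JAK3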
# Condition Details: at 0.1 µM
Would you mind telling me the reported inhibition of each entry?
Answers are plain numbers, in %.

Some entries whose results are on file:
[[record]]
chemical_string = "Cc1cccc(-c2n[nH]cc2-c2ccc3ncccc3n2)n1"
experimental_result = 0.65

[[record]]
chemical_string = "CS(=O)(=O)CCNCc1ccc(-c2ccc3ncnc(Nc4ccc(OCc5cccc(F)c5)c(C(F)(F)F)c4)c3c2)o1"
experimental_result = -0.58

[[record]]
chemical_string = "Nc1nc(-c2ccccn2)c(-c2ccc3ncccc3n2)s1"
experimental_result = -1.07

[[record]]
chemical_string = "COc1cc2c(cc1Nc1nc(N3CCc4ccccc43)c3cc[nH]c3n1)N(C(=O)CN(C)C)CC2"
experimental_result = 0.19


As a next step, examine the molecule that follows.
Input: What value of inhibition has been recorded for this entry: NCc1ccc(-c2nc(-c3ccc(Cl)c(O)c3)c(-c3ccncc3)[nH]2)cc1
Output: 1.4

====

Would you mind telling me the reported inhibition of each entry?
# Tested Target: Insulin-like growth factor 1 receptor (Homo sapiens) (UniProt P08069);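 also: values are mean percent inhibition of IGF1R kinase activity, from the GSK published kinase inhibitor set (PKIS) screening panel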
# Sequence (P08069 31-736 limits assumed): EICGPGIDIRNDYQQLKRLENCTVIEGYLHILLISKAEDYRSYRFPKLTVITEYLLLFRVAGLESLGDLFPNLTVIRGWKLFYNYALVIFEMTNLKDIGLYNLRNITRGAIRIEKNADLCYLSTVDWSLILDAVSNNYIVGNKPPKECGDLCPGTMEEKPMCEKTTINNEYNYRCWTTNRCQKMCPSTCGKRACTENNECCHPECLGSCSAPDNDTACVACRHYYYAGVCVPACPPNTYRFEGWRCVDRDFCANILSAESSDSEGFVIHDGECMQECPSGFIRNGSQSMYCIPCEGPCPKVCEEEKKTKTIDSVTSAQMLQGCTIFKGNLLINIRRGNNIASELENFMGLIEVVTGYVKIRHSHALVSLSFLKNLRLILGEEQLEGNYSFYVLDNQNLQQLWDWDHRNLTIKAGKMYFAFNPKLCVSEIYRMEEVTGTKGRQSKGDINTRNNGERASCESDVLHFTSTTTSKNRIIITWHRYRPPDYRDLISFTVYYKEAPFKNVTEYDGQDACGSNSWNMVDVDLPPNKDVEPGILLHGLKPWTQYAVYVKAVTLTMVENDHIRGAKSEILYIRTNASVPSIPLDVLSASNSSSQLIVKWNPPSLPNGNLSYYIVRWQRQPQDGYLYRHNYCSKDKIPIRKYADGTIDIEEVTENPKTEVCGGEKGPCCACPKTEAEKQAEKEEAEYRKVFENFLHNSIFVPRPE
# Sequence (P08069 741-1367 limits assumed): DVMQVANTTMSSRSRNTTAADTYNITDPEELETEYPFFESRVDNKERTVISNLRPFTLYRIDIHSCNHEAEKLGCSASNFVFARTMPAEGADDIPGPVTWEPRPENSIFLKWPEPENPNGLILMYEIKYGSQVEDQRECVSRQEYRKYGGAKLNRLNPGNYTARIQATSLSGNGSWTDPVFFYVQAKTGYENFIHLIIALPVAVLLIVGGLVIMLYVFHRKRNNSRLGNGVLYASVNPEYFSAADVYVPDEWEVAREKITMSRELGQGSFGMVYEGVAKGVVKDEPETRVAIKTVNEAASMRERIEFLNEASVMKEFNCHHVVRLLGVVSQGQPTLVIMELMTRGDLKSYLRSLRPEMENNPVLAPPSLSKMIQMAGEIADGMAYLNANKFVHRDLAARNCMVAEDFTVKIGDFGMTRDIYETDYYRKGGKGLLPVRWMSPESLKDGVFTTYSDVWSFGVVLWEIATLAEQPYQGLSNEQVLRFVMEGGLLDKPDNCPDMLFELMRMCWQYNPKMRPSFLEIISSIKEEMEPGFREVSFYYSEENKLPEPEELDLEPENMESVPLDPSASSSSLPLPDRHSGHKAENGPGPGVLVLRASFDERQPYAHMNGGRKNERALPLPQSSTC
# Condition Details: at 0.1 µM

Some entries whose results are on file:
[[record]]
compound = "Cc1cc(O)cc(C)c1/C=C/c1cncc(-c2nn[nH]n2)c1"
experimental_result = "-3.59%"

[[record]]
compound = "c1cnn2ncc(-c3ccnc(Nc4ccc5c(c4)OCCO5)n3)c2c1"
experimental_result = "15%"

[[record]]
compound = "CCn1c(-c2nonc2N)nc2ccncc21"
experimental_result = "-0.2%"

[[record]]
compound = "CC1=C(C(=O)Nc2ccc3[nH]ncc3c2)C(c2ccc(F)cc2)NC(=O)N1 (stereo not given)"
experimental_result = "9.13%"

[[record]]
compound = "Cc1nn(C)c2cc(N(C)c3ccnc(Nc4cccc(S(N)(=O)=O)c4)n3)ccc12"
experimental_result = "1.89%"

[[record]]
compound = "CCn1c(-c2nonc2N)nc2cncc(C(=O)N3CC[C@H](N)C3)c21"
experimental_result = "4.59%"

[[record]]
compound = "NCc1ccc(-c2nc(-c3ccc(Cl)c(O)c3)c(-c3ccncc3)[nH]2)cc1"
experimental_result = "-0.62%"

[[record]]
compound = "N#Cc1c(NC(=O)c2cccc3ccccc23)sc2c1CCCC2"
experimental_result = "1.59%"

[[record]]
compound = "[O-][S+]1CCN(Cc2ccc(-c3ccc4ncnc(Nc5ccc(OCc6ccccc6)c(F)c5)c4c3)o2)CC1"
experimental_result = "4.94%"


As a next step, examine the compound that follows.
Input: What value of inhibition has been recorded for this entry: COC(=O)Nc1nc2cc(Oc3cccc(NC(=O)Nc4cc(C(F)(F)F)ccc4F)c3)ccc2[nH]1
Output: -1.77%

====

# Tested Target: Receptor-type tyrosine-protein kinase FLT3 (Homo sapiens);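 also: mean inhibition value from the GSK PKIS kinase screening set, with the assay run by Nanosyn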
# Condition Details: at 0.1 µM
Readout: inhibition (%)
Answers are plain numbers, in %.

Could you tell me inhibition for each of these compounds? They are listed below.
1. COc1cc2ncn(-c3cc(O[C@H](C)c4ccccc4Cl)c(C(N)=O)s3)c2cc1OC
2. CC1=C(C(=O)Nc2ccc3[nH]ncc3c2)C(c2ccc(F)cc2)NC(=O)N1 (stereo not given)
3. CC1=C(C(=O)Nc2ccc3[nH]ncc3c2)C(c2ccc3ccccc3c2)CC(=O)N1 (stereo not given)
4. NCc1ccc(-c2nc(-c3ccc(Cl)c(O)c3)c(-c3ccncc3)[nH]2)cc1
5. O=C1NC(=O)C(c2ccc(Cl)cc2)=C1Nc1ccc(Cl)c(C(=O)O)c1

Output:
1. 6.07
2. 0.82
3. 0.05
4. -0.2
5. -0.57

====

# Tested Target: Sphingosine kinase 2 (Homo sapiens) (UniProt Q9NRA0);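 also: values reported as mean percent inhibition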
# Sequence (Q9NRA0 whole entry): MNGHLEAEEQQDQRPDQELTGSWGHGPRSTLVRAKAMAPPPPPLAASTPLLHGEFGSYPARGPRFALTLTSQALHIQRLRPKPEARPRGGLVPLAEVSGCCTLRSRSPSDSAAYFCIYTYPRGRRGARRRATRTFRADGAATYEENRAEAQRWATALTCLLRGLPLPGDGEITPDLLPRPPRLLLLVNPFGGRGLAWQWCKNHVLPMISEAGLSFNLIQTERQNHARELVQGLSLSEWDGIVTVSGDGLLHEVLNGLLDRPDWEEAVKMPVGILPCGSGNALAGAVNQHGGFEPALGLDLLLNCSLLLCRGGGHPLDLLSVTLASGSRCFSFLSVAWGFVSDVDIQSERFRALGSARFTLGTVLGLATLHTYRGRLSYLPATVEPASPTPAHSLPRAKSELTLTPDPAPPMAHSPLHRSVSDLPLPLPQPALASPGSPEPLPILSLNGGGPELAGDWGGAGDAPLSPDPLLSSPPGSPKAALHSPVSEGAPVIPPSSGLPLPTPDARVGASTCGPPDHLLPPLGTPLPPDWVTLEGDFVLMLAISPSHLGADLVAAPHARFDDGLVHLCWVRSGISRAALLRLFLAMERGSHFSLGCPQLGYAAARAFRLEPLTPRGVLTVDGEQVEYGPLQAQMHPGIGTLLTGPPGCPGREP
# Condition Details: at 0.1 µM
Would you mind telling me the reported inhibition of each entry?
One number for each entry, in %.

[[record]]
compound = "COc1cccc(-n2ncc3c(N/N=C/c4cccc(F)c4)ncnc32)c1"
tested_target = "Sphingosine kinase 2 (Homo sapiens) (UniProt Q9NRA0)"
experimental_result = 3.58


Could you tell me inhibition for each of these compounds? They are listed below.
1. CC1=C(C(=O)Nc2ccc3[nH]ncc3c2)C(c2ccc(Cl)c(Cl)c2)CC(=O)N1 (stereo not drawn)
2. O=C1NC(=O)C(c2cccc(Cl)c2)=C1Nc1ccc(O)c(Cl)c1
3. Nc1nc(-c2ccc3c(c2)C(=Cc2cc(Br)c(O)c(Br)c2)C(=O)N3)cs1
4. CN1CCC(C(=O)Nc2n[nH]c3nnc(-c4ccccc4)cc23)CC1
5. COc1ccc(-c2nn3ncccc3c2-c2ccnc(Nc3ccc(Cl)c(C(F)(F)F)c3)n2)cc1
6. CCn1c(-c2nonc2N)nc2cncc(C(=O)N3CC[C@H](N)C3)c21

Output:
1: -0.3; 2: -1.48; 3: -0.01; 4: -0.94; 5: -0.61; 6: 0.23

Could you tell me inhibition for each of these compounds? They are listed below.
1. CCN1CCC(CC(=O)Nc2n[nH]c3nc(-c4cccs4)c(Br)cc23)CC1
2. COc1cc2ncn(-c3cc(O[C@@H](C)c4ccccc4Cl)c(C(N)=O)s3)c2cc1OC
3. Fc1cccc(COc2ccc(Nc3ncnc4cc(-c5ccc[nH]5)sc34)cc2Cl)c1
4. COc1cc(C=NNc2ncnc3c2cnn3-c2ccccc2)ccc1O
5. COc1cc2ncn(-c3cc(O[C@H](C)c4ccccc4Cl)c(C(N)=O)s3)c2cc1OC

Output:
[-0.06, -0.7, 0.87, -0.52, 0.33]

Could you tell me inhibition for each of these compounds? They are listed below.
1. COc1ccc(-c2ccncc2)cc1C(N)=O
2. CS(=O)(=O)CCN(CC#N)Cc1ccc(-c2ccc3ncnc(Nc4ccc(OCc5cccc(F)c5)c(Cl)c4)c3c2)o1
3. N#Cc1c(NC(=O)c2cccc3ccccc23)sc2c1CCCC2
4. COc1ccccc1Nc1ncc(-c2ccccc2)o1
5. CC(C)=Cc1cccc2c1/C(=N/Nc1ccc(S(N)(=O)=O)cc1)C(=O)N2

Output:
0.88
-0.3
1.73
-0.59
0.66

Could you tell me inhibition for each of these compounds? They are listed below.
1. Cc1nnc(-c2ccc(C)c(-c3ccc(C(=O)Nc4cccc(C#N)c4)cc3)c2)o1
2. O=C1Nc2ccc(C(=O)c3ccco3)cc2C1=Cc1cc(Cl)c(O)c(Cl)c1

Output:
1: 0; 2: 1.43

Could you tell me inhibition for each of these compounds? They are listed below.
1. CCn1c(-c2nonc2N)nc2c(C#CC(C)(C)O)nc(CN3CCCC3)cc21
2. CS(=O)(=O)CCNCc1ccc(-c2ccc3ncnc(Nc4ccc(OCc5cccc(F)c5)c(C(F)(F)F)c4)c3c2)o1
3. COc1ccc(COc2ccc(Cc3cnc(N)nc3N)cc2OC)cc1

Output:
1. 2.01
2. 0.03
3. 0.09

Input: What value of inhibition has been recorded for this entry: O=C1NC(=O)C(c2ccccc2Cl)=C1Nc1cccc(O)c1
Output: 0.69

====

# Tested Target: Cyclin-dependent kinase 2 (Homo sapiens) (UniProt P24941);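 also: mean inhibition of CDK2 in complex with cyclin E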
# Condition Details: at 0.1 µM
Would you mind telling me the reported inhibition of each entry?
Remember to put the unit after the number in your answer.

Some entries whose results are on file:
[[record]]
compound = "CS(=O)(=O)CCNCc1ccc(-c2ccc3ncnc(Nc4ccc(OCc5ccccc5)c(Cl)c4)c3c2)o1"
readout = "inhibition"
experimental_result = "3.64%"

[[record]]
compound = "COc1ccc(-c2coc3ncnc(N)c23)cc1"
readout = "inhibition"
experimental_result = "6.07%"

[[record]]
compound = "CN1CCC(C(=O)Nc2n[nH]c3nnc(-c4ccccc4)cc23)CC1"
readout = "inhibition"
experimental_result = "5.55%"

[[record]]
compound = "CCc1cccc(NC(=O)Nc2ccc(Oc3ccc4nc(NC(=O)OC)[nH]c4c3)cc2)c1"
readout = "inhibition"
experimental_result = "3.03%"

[[record]]
compound = "Cc1nnc(-c2ccc(C)c(-c3ccc(C(=O)Nc4cccc(C#N)c4)cc3)c2)o1"
readout = "inhibition"
experimental_result = "1.82%"


Could you tell me inhibition for each of these compounds? They are listed below.
1. [O-][S+]1CCN(Cc2ccc(-c3ccc4ncnc(Nc5ccc(OCc6ccccc6)c(F)c5)c4c3)o2)CC1
2. CCCN1CCC=C(c2ccc(Nc3nc(Nc4ccccc4C(N)=O)c4cc[nH]c4n3)c(C)c2)C1
3. CS(=O)(=O)CCNCc1ccc(-c2ccc3ncnc(Nc4ccc(OCc5cccc(F)c5)c(C(F)(F)F)c4)c3c2)o1
4. COc1ccc2cc(-c3c(-c4ccncc4)nc(-c4ccc([S+](C)[O-])cc4)n3C)ccc2c1 (stereo unspecified)
5. c1cnn2ncc(-c3ccnc(Nc4ccc5c(c4)OCCO5)n3)c2c1
6. Cc1cccc(-c2n[nH]cc2-c2ccc3ncccc3n2)n1

Output:
1.88%
3.79%
1.93%
3.23%
73.6%
0.23%

====

# Tested Target: Serine/threonine-protein kinase Nek2 (Homo sapiens) (UniProt P51955);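 also: reported values are mean percent inhibition of NEK2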
# Sequence (P51955 whole entry): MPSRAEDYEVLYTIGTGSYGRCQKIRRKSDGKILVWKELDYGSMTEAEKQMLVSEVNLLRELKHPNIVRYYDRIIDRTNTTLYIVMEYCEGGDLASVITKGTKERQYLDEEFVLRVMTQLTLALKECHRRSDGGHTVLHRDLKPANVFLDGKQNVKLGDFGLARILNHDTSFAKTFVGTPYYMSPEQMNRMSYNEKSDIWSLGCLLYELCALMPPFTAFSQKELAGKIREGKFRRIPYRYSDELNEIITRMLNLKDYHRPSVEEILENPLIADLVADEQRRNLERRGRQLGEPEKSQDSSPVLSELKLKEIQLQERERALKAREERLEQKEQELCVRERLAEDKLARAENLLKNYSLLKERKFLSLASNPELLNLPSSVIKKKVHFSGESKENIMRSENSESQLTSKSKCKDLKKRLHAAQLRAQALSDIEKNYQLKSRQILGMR
# Condition Details: at 1 µM
Would you mind telling me the reported inhibition of each entry?
Numbers only, in %.

[[record]]
chemical_string = "COc1cc2ncn(-c3cc(OCc4ccccc4Cl)c(C(N)=O)s3)c2cc1OC"
tested_target = "Serine/threonine-protein kinase Nek2 (Homo sapiens) (UniProt P51955)"
readout = "inhibition"
experimental_result = 37.3

[[record]]
chemical_string = "COC(=O)Nc1nc2cc(Oc3ccc(NC(=O)Nc4cccc(C(=O)O)c4)cc3)ccc2[nH]1"
tested_target = "Serine/threonine-protein kinase Nek2 (Homo sapiens) (UniProt P51955)"
readout = "inhibition"
experimental_result = -6.05

[[record]]
chemical_string = "CS(=O)(=O)Nc1ccc(N/C=C2\\C(=O)Nc3ccccc32)cc1"
tested_target = "Serine/threonine-protein kinase Nek2 (Homo sapiens) (UniProt P51955)"
readout = "inhibition"
experimental_result = -3.33


Could you tell me inhibition for each of these compounds? They are listed below.
1. CCN1CCC(CC(=O)Nc2n[nH]c3nc(-c4cccs4)c(Br)cc23)CC1
2. COc1cc(C)c(NC(=O)CN(C)C)cc1Nc1nc(Nc2cccc(F)c2C(N)=O)c2cc[nH]c2n1

Output:
1. -2.3
2. 3.95
